- Tested on: MCF7 breast
- EXPERIMENT: NCI-60 one-dose screen, 48 h (100 = growth as untreated, 0 = no growth, -100 = all killed)
- RECORDED_CONDITIONS: 10 µM unless noted
Compounds without any hit were thinned out: in the full panel of roughly 83,000, 20% have a hit.
# strict inequality: growth < 20% yields yes, everything else yields no

                                    compound  answer_label
 0  CCOc1ccc(-n2c(-c3cc(OC)c(OC)c(OC)c3)nnc2-c2ccc(OC)cc2N)cc1            no
 1  CC(C)[C@@H]1NC(=O)[C@]2(C)CSC(=N2)c2ccnc(c2)CNC(=O)C[C@@H](/C=C/CCS)OC1=O           yes
 2  COc1cc(-c2nc3sc(C)cn3c2/C=C2\C(=O)Nc3ccccc32)c(Br)c(OC)c1OC           yes
 3  O=C(Nc1cccc(-n2ccc3c(NC(=O)c4ccccc4)nccc32)c1)Nc1cc(C(F)(F)F)cc(C(F)(F)F)c1           yes
 4  COc1ccc(-c2ccc(NC(=O)Nc3ccc(Cl)c(C(F)(F)F)c3)c(C)n2)cc1            no
 5  COc1ccc(Cl)cc1NC(=O)c1cc2c([nH]1)-c1nc(NC(=O)C(C)C)sc1CC2            no
 6  COc1cccc(/C=N/C(=S)NC2(C)C3CCC(C3)C2(C)C)c1O (stereo not given)            no
 7  O=S(c1ccccc1)c1ccc2nnnn2n1 (stereo not given)            no
 8         O=C(O)c1cccc(S(=O)(=O)c2ccccc2)c1            no
 9  CCOC(=O)c1[nH]c(-c2ccc(Cl)cc2)cc1-c1cccnc1            no
10  CCc1ccc(C2=C/C(=C/c3ccc(Cl)cc3)C(=O)N2CCc2ccc(S(N)(=O)=O)cc2)cc1           yes
11             Cc1ccc(=O)n(-c2ccc(Br)cc2F)c1            no
12       COC(=O)Nc1nc2ccc(Sc3ccccc3)cc2[nH]1            no
13    NC(=NCCCOc1ccc(F)cc1)Nc1ccc(Cl)c(Cl)c1           yes
14  Cc1c(F)cccc1NC(=O)c1sc2nc3c(cc2c1N)CCCCC3           yes

---

- Tested on: HT29 colon
- EXPERIMENT: NCI-60 one-dose screen, 48 h
- RECORDED_CONDITIONS: 10 µM unless noted
Compounds without any hit were thinned out: in the full panel of roughly 83,000, 20% have a hit. Calls of active or inactive are those of the source. The calls were made as follows: active = growth percent below 10; inactive = the rest.
Outcomes: 1.0 = active, 0.0 = inactive

                                   molecule  answer_label
0  COc1cc(/C=C/C(=O)c2c(C)n([O-])c3cc(C)c(C)cc3[n+]2=O)cc(OC)c1OC           0.0
1  CC(C)(c1ccc(OCC(O)CNCc2ccco2)cc1)c1ccc(OCC(O)CNCc2ccco2)cc1 (stereo not drawn)           0.0
2  O=C(Nc1ccc(-n2ccc3c(NC(=O)c4ccccc4)ncnc32)cc1)c1ccc(Cl)c(C(F)(F)F)c1           1.0
3  CC(=O)N1N=C2N(Cc3ccccc3)C(=O)c3c(sc4c3CCCC4)N2C1c1cn(-c2ccccc2)nc1-c1ccc(Cl)cc1 (stereo not drawn)           0.0
4           CC(C)(C)OC(=O)NCc1cccc(N=C=S)c1           0.0
5                    COC1=C(OC)C(=O)C=CC1=O           0.0
6  COc1ccccc1NC(=O)COc1ccc(/C=C2/Oc3cc4occc4c(OC)c3C2=O)cc1OC           0.0
7         O=C1COc2ccccc2C(=O)N1CCCCN1CCCCC1           0.0

---

- Tested on: SK-MEL-5 melanoma
- EXPERIMENT: NCI-60 one-dose screen, 48 h (100 = growth as untreated, 0 = no growth, -100 = all killed)
- RECORDED_CONDITIONS: 10 µM unless noted
About 83,000 compounds went through this panel and 20% of them were active in at least one assay; those are over-represented in the sample as a whole.
Listing of entries alongside the reported growth.
MEASURED_METRIC: growth (%)

>>> df
                                    compound  measured_metric  unit_descriptor  number
 0  CCCCn1c(-c2cccc(OC)c2)nc2cc(OC)c(OC)cc2c1=O           growth                %    97.1
 1  Cc1ccc2nc(-c3ccc(-n4on4-c4ccc(/C=C/c5ccc(-n6on6-c6ccc(-c7nc8ccc(C)cc8s7)cc6)cc5S(=O)(=O)O)c(S(=O)(=O)O)c4)cc3)sc2c1           growth                %     107
 2  COc1ccc(-c2nn(-c3ccc(NC(=O)Nc4ccc(Cl)c(C(F)(F)F)c4)cc3)cc2-c2ccncc2)cc1Cl           growth                %   -86.8
 3  NS(=O)(=O)c1ccc(CCN2C(=O)/C(=C\c3ccc(Cl)cc3)C=C2c2ccc(Oc3ccccc3)cc2)cc1           growth                %    77.4
 4  Nc1ncnc2c1ncn2C1OC(COC(c2ccccc2)(c2ccccc2)c2ccccc2)C(O)C1O (stereo not drawn)           growth                %    92.3
 5  Cc1cn(C2CC(F)C(CO)O2)c(=O)[nH]c1=O (stereo not drawn)           growth                %    74.4
 6                          COc1ccc(N)c(S)c1           growth                %    91.5
 7  c1ccc(CNCCN(CCNCc2ccccn2)Cc2ccc3ccccc3c2)nc1           growth                %   -43.1
 8  CC(=O)N1N=C(CCC(=O)c2nc3ccc([N+](=O)[O-])cc3[nH]2)OC1c1ccc(O)cc1 (stereo not drawn)           growth                %     112
 9  CCn1c(SC)nnc1-c1cc2c([nH]c3ccccc32)c(-c2cccc(O)c2)n1           growth                %   -16.2
10  COc1ccccc1N1CCN(CC(O)COc2c(Br)c(Br)c(Br)c3c2OC(C)(C)C3)CC1 (stereo not drawn)           growth                %    7.43
11  CCc1cccc(C)c1NC(=O)c1sc2nc3c(cc2c1N)CCCCC3           growth                %    14.2
12                  CCNc1cc(S(=O)(=O)O)ccc1C           growth                %     102
13  COc1ccc(/C=C/C(=O)c2ccc(Oc3ncnc4ccccc34)cc2)cc1OC           growth                %    72.5
14  COC(=O)c1oc2c(C(C)=O)c(OCCCN(C)C)ccc2c1C           growth                %     103
15  COc1ccccc1S(=O)(=O)Nc1ccc2c3c(cc(-c4cnn(C5CC5)c4)nc13)C(=O)N2C           growth                %    57.5
16   Nc1nc(Cl)c2c(C(F)(F)F)cn(CC3CCNCC3)c2n1           growth                %    94.9
17  O=[N+]([O-])c1ccc(NS(=O)(=O)c2cc(Cl)ccc2Cl)c2ccccc12           growth                %      14

---

- System: SNB-19 CNS
- EXPERIMENT: NCI-60 one-dose screen, 48 h (100 = growth as untreated, 0 = no growth, -100 = all killed)
- RECORDED_CONDITIONS: 10 µM unless noted
- Method: Growth inhibition of the SNB-19 human tumor cell line is measured as a screen for anti-cancer activity. Cells are grown in 96 well plates and exposed to the test compound for 48 hours. Compounds are tested at a single concentration, which is 10^-5 M for most compounds. The reported endpoint is percent growth (GI% or GIPRCNT), where numbers from 0 - 100% represent growth inhibition, and numbers from -100% - 0 represent cell death. For example, a value of 40 represents 60% growth inhibition. […]
About 83,000 compounds went through this panel and 20% of them were active in at least one assay; those are over-represented in the sample as a whole.
MEASURED_METRIC: growth (%)

                                   compound  unit_descriptor  number
0  COc1ccc2c(c1)O/C(=C/c1ccc(OCC(=O)Nc3ccc(S(N)(=O)=O)cc3)cc1)C2=O                %    92.1
1  CC(=O)c1cc2c(N)c(C(=O)Nc3cccc(Cl)c3)sc2nc1C                %    91.3
2      Cc1cc2c(cc1C)N(C(=O)CCl)CCN2C(=O)CCl                %    39.6
3  CC1CCc2cc(F)cc3c(=O)c(C(=O)O)cn1c23 (stereo not given)                %    93.1
4                        S=c1ssnc1-c1ccccn1                %    47.8
